Quick reference for remaining at 1 h, 1 µM among some compounds
Assay: Metabolic stability in human microsomes assessed as compound remaining at 1 uM after 60 mins by LC/MS/MS analysis in presence of NADPH
Type: ADME, Microsome
Settings: read-out: Stability

{"compound": "O=[N+]([O-])c1ncn(CC(O)(Cn2cncn2)c2ccc(-c3ccccc3)cc2)n1 (configuration not stated)", "remaining at 1 h, 1 µM, %": 90.7}
{"compound": "N#Cc1ccc(-c2ccc(NC(=O)Cn3cnc([N+](=O)[O-])n3)cc2)cc1", "remaining at 1 h, 1 µM, %": 96.8}

---

System: Trypanosoma cruzi
Assay: Activity of his-tagged recombinant Trypanosoma cruzi type-1 nitroreductase assessed as oxidized NADH level per mg of protein after 5 mins by absorption spectrum analysis
I would appreciate it if you labelled entries condition met when Activity is 1000 nmol/min or higher, otherwise condition not met.

{"compound": "CC(O)(Cn1cnc([N+](=O)[O-])n1)c1ccc(-n2ccnc2)cc1 (stereo not given)", "class_name": "condition met"}
{"compound": "O=C(Cn1ccnc1[N+](=O)[O-])NCc1ccccc1", "class_name": "condition not met"}
{"compound": "O=[N+]([O-])c1ncn(CC(O)(Cn2cncn2)c2ccc(F)cc2F)n1 (stereo not given)", "class_name": "condition met"}
{"compound": "O=[N+]([O-])c1ncn(CC(O)(Cn2cncn2)c2ccc(-c3ccccc3)cc2)n1 (stereo not given)", "class_name": "condition met"}
{"compound": "N#Cc1ccc(-c2ccc(NC(=O)Cn3cnc([N+](=O)[O-])n3)cc2)cc1", "class_name": "condition not met"}

---

Quick reference for Activity among some compounds
Test system: Trypanosoma brucei
Test: Activity of his-tagged recombinant Trypanosoma brucei type-1 nitroreductase assessed as oxidized NADH level per mg of protein after 5 mins by absorption spectrum analysis
property_name: Activity

{"compound": "O=[N+]([O-])c1ncn(CC(O)(Cn2cncn2)c2ccc(F)cc2F)n1 (stereo not given)", "reported": "3060 nmol/min"}
{"compound": "O=[N+]([O-])c1ncn(CC(O)(Cn2cncn2)c2ccc(-c3ccccc3)cc2)n1 (stereo not given)", "reported": "2680 nmol/min"}
{"compound": "N#Cc1ccc(-c2ccc(NC(=O)Cn3cnc([N+](=O)[O-])n3)cc2)cc1", "reported": "3170 nmol/min"}
{"compound": "O=C(Cn1ccnc1[N+](=O)[O-])NCc1ccccc1", "reported": "1540 nmol/min"}
{"compound": "CC(O)(Cn1cnc([N+](=O)[O-])n1)c1ccc(-n2ccnc2)cc1 (stereo not given)", "reported": "3460 nmol/min"}

---

Assay: Metabolic stability in mouse microsomes assessed as compound remaining at 1 uM after 60 mins by LC/MS/MS analysis in absence of NADPH
Format: ADME, Microsome
Settings: read-out: Stability
property_name: remaining at 1 h, 1 µM

{"molecule": "N#Cc1ccc(-c2ccc(NC(=O)Cn3cnc([N+](=O)[O-])n3)cc2)cc1", "property_name": "remaining at 1 h, 1 µM", "reported": "110%"}
{"molecule": "O=[N+]([O-])c1ncn(CC(O)(Cn2cncn2)c2ccc(-c3ccccc3)cc2)n1 (configuration not stated)", "property_name": "remaining at 1 h, 1 µM", "reported": "102%"}

---

Assay: Metabolic stability in human microsomes assessed as compound remaining at 1 uM after 60 mins by LC/MS/MS analysis in absence of NADPH
Type: ADME, Microsome
Conditions: read-out: Stability
Quick reference for remaining at 1 h, 1 µM among some molecules
property_name: remaining at 1 h, 1 µM (%)

{"molecule": "O=[N+]([O-])c1ncn(CC(O)(Cn2cncn2)c2ccc(-c3ccccc3)cc2)n1 (configuration not stated)", "property_name": "remaining at 1 h, 1 µM", "quantity_unit": "%", "reported": 106}
{"molecule": "N#Cc1ccc(-c2ccc(NC(=O)Cn3cnc([N+](=O)[O-])n3)cc2)cc1", "property_name": "remaining at 1 h, 1 µM", "quantity_unit": "%", "reported": 84.8}

---

Quick reference for IC50 among some molecules
System: Trypanosoma brucei rhodesiense
Test: Antitrypanosomal activity against trypomastigote stage of Trypanosoma brucei rhodesiense STIB 900 assessed as parasite growth inhibition after 72 hrs by Alamar Blue assay
Assay type: functional, organism-based
Conditions: STIB 900, 72 h
property_name: IC50 (µM)

{"molecule": "O=C(Cn1cnc([N+](=O)[O-])n1)c1ccc(-c2ccccc2)cc1", "quantity_unit": "µM", "reported": 1.75}
{"molecule": "CC1(c2ccc(-n3ccnc3)cc2)CO1 (stereo unspecified)", "quantity_unit": "µM", "reported": 76.2}
{"molecule": "O=[N+]([O-])c1ncn(CC(O)(Cn2cncn2)c2ccc(F)cc2F)n1 (stereo unspecified)", "quantity_unit": "µM", "reported": 26.6}
{"molecule": "CC(O)(Cn1cnc([N+](=O)[O-])n1)c1ccc(-n2ccnc2)cc1 (stereo unspecified)", "quantity_unit": "µM", "reported": 1.84}
{"molecule": "O=C(Cn1ccnc1[N+](=O)[O-])c1ccc(-c2ccccc2)cc1", "quantity_unit": "µM", "reported": 76.5}
{"molecule": "CC(O)(Cn1cnc([N+](=O)[O-])n1)c1ccc(-c2ccccc2)cc1 (stereo unspecified)", "quantity_unit": "µM", "reported": 1.09}

---

System: Trypanosoma cruzi
Assay: Antitrypanosomal activity against amastigote stage of Trypanosoma cruzi Tulahuen C4 infected in rat L6 cells assessed as parasite growth inhibition after 96 hrs by colorimetric analysis
Type: functional, organism-based
Conditions: Tulahuen C4, L6, 96 h
pIC50: −log10 of the molar value.
Quick reference for pIC50 among some molecules

{"molecule": "CC(O)(Cn1cncn1)c1ccc(-c2ccccc2)cc1 (configuration not stated)", "pIC50": 6.15}
{"molecule": "CC1(c2ccc(-n3ccnc3)cc2)CO1 (configuration not stated)", "pIC50": 3.73}
{"molecule": "CC(O)(Cn1cncn1)c1ccc(-n2ccnc2)cc1 (configuration not stated)", "pIC50": 3.80}
{"molecule": "O=C(Cn1cncn1)c1ccc(-c2ccccc2)cc1", "pIC50": 4.64}
{"molecule": "O=[N+]([O-])c1ncn(CC(O)(Cn2cncn2)c2ccc(F)cc2F)n1 (configuration not stated)", "pIC50": 5.93}
{"molecule": "O=C(Cn1ccnc1[N+](=O)[O-])Nc1nc(-c2ccc(F)c(F)c2)cs1", "pIC50": 5.40}
{"molecule": "N#Cc1ccc(-c2ccc(NC(=O)Cn3cnc([N+](=O)[O-])n3)cc2)cc1", "pIC50": 6.86}
{"molecule": "CC(O)(Cn1cnc([N+](=O)[O-])n1)c1ccc(-c2ccccc2)cc1 (configuration not stated)", "pIC50": 6.99}
{"molecule": "O=[N+]([O-])c1ncn(CC(O)(Cn2cncn2)c2ccc(-c3ccccc3)cc2)n1 (configuration not stated)", "pIC50": 7.48}
{"molecule": "O=C(Cn1cnc([N+](=O)[O-])n1)Nc1nc(-c2ccc(F)c(F)c2)cs1", "pIC50": 6.34}
{"molecule": "Cc1nc(-c2cccc(NC(=O)Cn3cnc([N+](=O)[O-])n3)c2)cs1", "pIC50": 6.26}
{"molecule": "CC(O)(Cn1cnc([N+](=O)[O-])n1)c1ccc(-n2ccnc2)cc1 (configuration not stated)", "pIC50": 5.48}
{"molecule": "O=C(Cn1cnc([N+](=O)[O-])n1)Nc1ccc(N2CCCCC2)cc1", "pIC50": 6.26}
{"molecule": "O=C(Cn1cnc([N+](=O)[O-])n1)Nc1ccc(-c2ccc(Cl)cc2)cc1", "pIC50": 7.35}
{"molecule": "O=C(Cn1cnc([N+](=O)[O-])n1)c1ccc(F)cc1F", "pIC50": 5.92}
{"molecule": "OC(Cn1cncn1)(Cn1cncn1)c1ccc(F)cc1F [FLUCONAZOLE]", "pIC50": 5.00}
{"molecule": "O=C(Cn1cnc([N+](=O)[O-])n1)Nc1nc(-c2ccc(Cl)cc2)cs1", "pIC50": 6.99}
{"molecule": "Cc1ccc(S(=O)(=O)NC(Cc2ccccc2)Cn2cnc([N+](=O)[O-])n2)cc1 (configuration not stated)", "pIC50": 6.47}
{"molecule": "Fc1ccc(C2(Cn3cncn3)Cn3ccnc3O2)c(F)c1 (configuration not stated)", "pIC50": 5.24}
{"molecule": "O=C(Cn1cnc([N+](=O)[O-])n1)Nc1nnc(-c2ccc(Cl)cc2)s1", "pIC50": 4.78}
{"molecule": "O=C(Cn1cnc([N+](=O)[O-])n1)c1ccc(-c2ccccc2)cc1", "pIC50": 6.73}
{"molecule": "O=C(Cn1ccnc1[N+](=O)[O-])c1ccc(-c2ccccc2)cc1", "pIC50": 4.85}

---

Quick reference for selectivity ratio among some compounds
Experiment: Selectivity index, ratio of IC50 for rat L6 cells to IC50 for trypomastigote stage of Trypanosoma brucei rhodesiense STIB 900
Type: toxicity, cell-based
Conditions: read-out: Ratio IC50

{"compound": "O=[N+]([O-])c1ncn(CC(O)(Cn2cncn2)c2ccc(-c3ccccc3)cc2)n1 (centres undefined)", "reported_relation": "=", "selectivity ratio": 44}
{"compound": "Cc1nc(-c2cccc(NC(=O)Cn3cnc([N+](=O)[O-])n3)c2)cs1", "reported_relation": "=", "selectivity ratio": 10}
{"compound": "CC(O)(Cn1cncn1)c1ccc(-c2ccccc2)cc1 (centres undefined)", "reported_relation": "=", "selectivity ratio": 1.74}
{"compound": "CC(O)(Cn1cnc([N+](=O)[O-])n1)c1ccc(-c2ccccc2)cc1 (centres undefined)", "reported_relation": "=", "selectivity ratio": 78.9}
{"compound": "O=C(Cn1cnc([N+](=O)[O-])n1)Nc1nc(-c2ccc(Cl)cc2)cs1", "reported_relation": "=", "selectivity ratio": 24}
{"compound": "CC(O)(Cn1cnc([N+](=O)[O-])n1)c1ccc(-n2ccnc2)cc1 (centres undefined)", "reported_relation": ">", "selectivity ratio": 173}
{"compound": "O=C(Cn1cnc([N+](=O)[O-])n1)c1ccc(-c2ccccc2)cc1", "reported_relation": "=", "selectivity ratio": 125}
{"compound": "O=C(Cn1cnc([N+](=O)[O-])n1)Nc1ccc(-c2ccc(Cl)cc2)cc1", "reported_relation": "=", "selectivity ratio": 140}
{"compound": "N#Cc1ccc(-c2ccc(NC(=O)Cn3cnc([N+](=O)[O-])n3)cc2)cc1", "reported_relation": "=", "selectivity ratio": 490}
